- test-settings: in 1,4-dioxane, 293.15 K
observed-property: solubility (mole fraction)
Please state the value as a number alone, without comment.

Query: Recorded solubility (mole fraction) of CC(C(=O)O)c1ccc(CC2CCCC2=O)cc1 (stereo unspecified) , please.
Reply: 0.19

* * *

- test-settings: in n-propanol, 328.15 K
observed-property: solubility (mole fraction)
Please state the value as a number alone, without comment.

Query: Recorded solubility (mole fraction) of CC(C(=O)O)c1ccc(CC2CCCC2=O)cc1 (stereo unspecified) , please.
Reply: 0.338

* * *

- test-settings: in methanol, 323.15 K
observed-property: solubility (mole fraction)

Query: Recorded solubility (mole fraction) of CC(C(=O)O)c1ccc(CC2CCCC2=O)cc1 (stereo unspecified) , please.
Reply: 0.496

* * *

- test-settings: in acetonitrile, 328.15 K
observed-property: solubility (mole fraction)
Please state the value as a number alone, without comment.

Query: Recorded solubility (mole fraction) of CC(C(=O)O)c1ccc(CC2CCCC2=O)cc1 (stereo unspecified) , please.
Reply: 0.318

* * *

- test-settings: in 1,4-dioxane, 303.15 K
observed-property: solubility (mole fraction)
Please state the value as a number alone, without comment.

Query: Recorded solubility (mole fraction) of CC(C(=O)O)c1ccc(CC2CCCC2=O)cc1 (stereo unspecified) , please.
Reply: 0.246

* * *

- test-settings: in 1,4-dioxane, 308.15 K
observed-property: solubility (mole fraction)
Please state the value as a number alone, without comment.

Query: Recorded solubility (mole fraction) of CC(C(=O)O)c1ccc(CC2CCCC2=O)cc1 (stereo unspecified) , please.
Reply: 0.272

* * *

- test-settings: in methanol, 293.15 K
observed-property: solubility (mole fraction)
Please state the value as a number alone, without comment.

Query: Recorded solubility (mole fraction) of CC(C(=O)O)c1ccc(CC2CCCC2=O)cc1 (stereo unspecified) , please.
Reply: 0.0897

* * *

- test-settings: in n-butyl acetate, 288.15 K
observed-property: solubility (mole fraction)
Please state the value as a number alone, without comment.

Query: Recorded solubility (mole fraction) of CC(C(=O)O)c1ccc(CC2CCCC2=O)cc1 (stereo unspecified) , please.
Reply: 0.0338

* * *

- test-settings: in acetonitrile, 303.15 K
observed-property: solubility (mole fraction)

Query: Recorded solubility (mole fraction) of CC(C(=O)O)c1ccc(CC2CCCC2=O)cc1 (stereo unspecified) , please.
Reply: 0.059

* * *

- test-settings: in isopropyl acetate, 288.15 K
observed-property: solubility (mole fraction)
Please state the value as a number alone, without comment.

Query: Recorded solubility (mole fraction) of CC(C(=O)O)c1ccc(CC2CCCC2=O)cc1 (stereo unspecified) , please.
Reply: 0.0373

* * *

- test-settings: in n-propyl acetate, 298.15 K
observed-property: solubility (mole fraction)
Please state the value as a number alone, without comment.

Query: Recorded solubility (mole fraction) of CC(C(=O)O)c1ccc(CC2CCCC2=O)cc1 (stereo unspecified) , please.
Reply: 0.0631

* * *

- test-settings: in isopropyl acetate, 298.15 K
observed-property: solubility (mole fraction)
Please state the value as a number alone, without comment.

Query: Recorded solubility (mole fraction) of CC(C(=O)O)c1ccc(CC2CCCC2=O)cc1 (stereo unspecified) , please.
Reply: 0.056

* * *

- test-settings: in isopentyl acetate, 303.15 K
observed-property: solubility (mole fraction)
Please state the value as a number alone, without comment.

Query: Recorded solubility (mole fraction) of CC(C(=O)O)c1ccc(CC2CCCC2=O)cc1 (stereo unspecified) , please.
Reply: 0.0561

Cited source: BigSolDB 2.1
